Overview of recorded IC50 for various compounds
- tgt: HDAC-6 (Homo sapiens (Human), UniProt Q9UBN7)
- Sequence (Q9UBN7 whole entry): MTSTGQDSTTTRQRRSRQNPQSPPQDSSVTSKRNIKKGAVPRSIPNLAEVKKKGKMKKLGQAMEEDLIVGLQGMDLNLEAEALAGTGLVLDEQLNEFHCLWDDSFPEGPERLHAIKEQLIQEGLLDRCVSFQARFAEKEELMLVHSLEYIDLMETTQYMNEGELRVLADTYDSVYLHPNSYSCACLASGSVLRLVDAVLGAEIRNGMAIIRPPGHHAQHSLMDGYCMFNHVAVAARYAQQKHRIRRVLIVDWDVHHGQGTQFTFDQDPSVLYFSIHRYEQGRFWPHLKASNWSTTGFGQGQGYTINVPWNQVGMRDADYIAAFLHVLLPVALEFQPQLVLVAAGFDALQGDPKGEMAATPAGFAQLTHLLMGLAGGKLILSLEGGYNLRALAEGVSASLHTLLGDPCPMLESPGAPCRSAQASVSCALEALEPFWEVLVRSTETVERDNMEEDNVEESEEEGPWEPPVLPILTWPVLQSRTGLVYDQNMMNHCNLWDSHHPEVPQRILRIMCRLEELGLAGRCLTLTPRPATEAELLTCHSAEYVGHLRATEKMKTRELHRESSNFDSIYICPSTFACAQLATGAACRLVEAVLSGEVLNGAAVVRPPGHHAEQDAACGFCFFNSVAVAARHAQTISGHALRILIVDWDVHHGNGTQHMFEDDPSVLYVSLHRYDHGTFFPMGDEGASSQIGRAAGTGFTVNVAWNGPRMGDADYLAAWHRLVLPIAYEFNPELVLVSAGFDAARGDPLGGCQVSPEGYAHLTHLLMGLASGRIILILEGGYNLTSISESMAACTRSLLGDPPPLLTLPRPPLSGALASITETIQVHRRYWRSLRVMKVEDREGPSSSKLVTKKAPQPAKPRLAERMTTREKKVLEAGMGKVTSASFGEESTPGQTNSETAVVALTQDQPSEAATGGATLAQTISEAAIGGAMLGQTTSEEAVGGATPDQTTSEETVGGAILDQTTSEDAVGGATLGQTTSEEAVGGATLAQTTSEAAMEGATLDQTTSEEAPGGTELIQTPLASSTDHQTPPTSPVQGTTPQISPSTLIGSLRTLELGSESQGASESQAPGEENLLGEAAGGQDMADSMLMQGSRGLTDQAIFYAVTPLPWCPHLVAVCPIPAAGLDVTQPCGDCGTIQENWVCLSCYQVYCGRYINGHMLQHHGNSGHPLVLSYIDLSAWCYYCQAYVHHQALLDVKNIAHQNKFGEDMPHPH
- assay.name: HDAC-6 fluorogenic deacetylase assay (Ac-peptide-AMC)
- Format: biochemical
- condition.notes: recombinant, full-length protein, Ac-peptide-AMC substrate; read-out: HDAC6 (IC5)
- Protocol: The inhibitory effect of compounds on HDAC-1 and HDAC-6 function was determined in vitro using an optimized homogenous assay performed in 384-well plate format. […] Fluorescence measurements were obtained using a multilabel plate reader (Synergy MX with excitation at 355 nm and emission at 460 nm). Data were analyzed on a plate-by-plate basis for the linear range of fluorescence over time. […]

compound: Cc1nc2c(F)cc(-c3nc(Nc4ccc(N5CCN(CCCCC(=O)NO)CC5)cn4)ncc3F)cc2n1C(C)C [Compound 13]
IC50: 10 to 100 nM
--
compound: Cc1nc2c(F)cc(-c3nc(Nc4ccc(/C=C/C(=O)NO)cn4)ncc3F)cc2n1C(C)C [Compound 5]
IC50: 10 to 100 nM
--
compound: Cc1nc2c(F)cc(-c3nc(Nc4ccc(N5CCN(CCC(=O)NO)CC5)cn4)ncc3F)cc2n1C(C)C [Compound 14]
IC50: 500 to 1000 nM

Which IC50 is reported with HDAC-6 (Homo sapiens (Human), UniProt Q9UBN7) for this entry: Cc1nc2c(F)cc(-c3nc(Nc4ccc(N(C)CCN(C)c5ncc(C(=O)NO)cn5)cn4)ncc3F)cc2n1C(C)C [Compound 2] ?
10 to 100 nM

Repeat with Cc1nc2c(F)cc(-c3nc(Nc4ccc(-c5ccc(C(=O)NO)cn5)cn4)ncc3F)cc2n1C(C)C [Compound 16]
100 to 500 nM

Repeat with Cc1nc2c(F)cc(-c3nc(Nc4cc(C(=O)NO)ccn4)ncc3F)cc2n1C(C)C [Compound 12]
10 to 100 nM

Repeat with Cc1nc2c(F)cc(-c3nc(Nc4ccc(CN5CCN(CCCCCCC(=O)NO)CC5)cn4)ncc3F)cc2n1C(C)C [Compound 1]
10 to 100 nM

Repeat with Cc1nc2c(F)cc(-c3nc(Nc4ccc(N(C)CCCCCCC(=O)NO)cn4)ncc3F)cc2n1C(C)C [Compound 3]
10 to 100 nM

Repeat with Cc1nc2c(F)cc(-c3nc(Nc4ccc(C(=O)NO)nc4)ncc3F)cc2n1C(C)C [Compound 11]
≥ 1000 nM

Repeat with Cc1nc2c(F)cc(-c3nc(Nc4ccc(N(C)Cc5ccc(/C=C/C(=O)NO)cc5)cn4)ncc3F)cc2n1C(C)C [Compound 7]
10 to 100 nM

Repeat with Cc1nc2c(F)cc(-c3nc(Nc4ccc(N(C)Cc5ccc(C(=O)NO)cc5)cn4)ncc3F)cc2n1C(C)C [Compound 6]
10 to 100 nM

Repeat with Cc1nc2c(F)cc(-c3nc(Nc4ccc(N5CCC(C(=O)NO)CC5)cn4)ncc3F)cc2n1C(C)C [Compound 15]
100 to 500 nM
